# Tested on: QG-56 (lung squamous carcinoma)
# experimentalProtocol: In vitro growth inhibition assay, QG-56
# Format: cell-based
# runParameters: Homo sapiens; QG-56, monolayer culture, 72 to 120 hr
# Description: In vitro growth inhibition activities were determined according to the method described in "Cancer Research", Vol. 43, p. 5851-5856 (1983). In the case of monolayer culture (solid tumor cell lines), cells were cultured for 24 hr without the compound in order to allow cells to attach on the culture plate. Then the culture medium was changed to a fresh medium containing various concentrations of the compound. […] Cell numbers were counted with a Coulter Counter and IC50 s were calculated.
valueType: IC50 (nM)

- smilesRecord: "N#Cc1ncn([C@@H]2O[C@H](CO)[C@@H](O)[C@H]2O)c1O"
  resultNumber: 2800
